# test_target: mouse NPR1 extracellular domain expressed with a C-terminal myc-myc-hexahistidine (mNPR1-MMH) (mouse, UniProt P18293 29-469)
# Sequence (P18293 other isoform, or with tags, fused parts or gaps): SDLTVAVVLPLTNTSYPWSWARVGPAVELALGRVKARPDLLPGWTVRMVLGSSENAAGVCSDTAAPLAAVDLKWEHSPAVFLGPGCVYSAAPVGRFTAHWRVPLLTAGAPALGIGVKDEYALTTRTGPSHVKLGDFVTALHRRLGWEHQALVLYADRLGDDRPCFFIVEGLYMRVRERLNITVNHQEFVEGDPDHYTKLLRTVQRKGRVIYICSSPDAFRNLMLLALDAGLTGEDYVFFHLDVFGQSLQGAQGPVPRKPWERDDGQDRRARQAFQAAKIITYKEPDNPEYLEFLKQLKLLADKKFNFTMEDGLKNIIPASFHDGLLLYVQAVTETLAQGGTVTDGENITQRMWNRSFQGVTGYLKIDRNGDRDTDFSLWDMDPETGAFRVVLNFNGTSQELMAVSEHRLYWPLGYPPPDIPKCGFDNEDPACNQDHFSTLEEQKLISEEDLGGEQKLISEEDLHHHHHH
# experiment_notes: SPR, mAb captured, 37 C
readout_kind: 100 nM Ag Bound (RU)
Only the number, expressed in RU, is required.

INPUT: Complete the entry with 100 nM Ag Bound (RU) for mAb22810 (antibody, V domains shown) VH: EVQLVESGGGLVKPGGSLRLSCVVSGFTFRIYTMNWVRQAPGKGLEWVASISSSSSFINYADSLKGRFTISRDNAQNSLYLQMNSLRAEDTAIYYCARAAGNDVLPGRMDVWGQGTSVTVSS VL: EIVLTQSPGTLSLSPGERATLSCRASQSVSSNYLAWYQQKPGQVPSLLIYGASSRATGIPDRFSGSGSGTDFTLTITRLEPEDFAVYYCQQYGISPWTFGQGTKVEIK
OUTPUT: -2

INPUT: Complete the entry with 100 nM Ag Bound (RU) for mAb25508 (antibody, V domains shown) VH: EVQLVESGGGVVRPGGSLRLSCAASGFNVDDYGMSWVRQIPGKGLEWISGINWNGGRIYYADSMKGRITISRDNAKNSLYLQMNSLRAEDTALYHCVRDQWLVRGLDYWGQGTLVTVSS VL: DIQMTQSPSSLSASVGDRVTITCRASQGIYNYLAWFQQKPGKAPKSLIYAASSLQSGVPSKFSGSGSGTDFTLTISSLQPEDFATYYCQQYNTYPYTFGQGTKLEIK
OUTPUT: 0

INPUT: Complete the entry with 100 nM Ag Bound (RU) for mAb22805 (antibody, V domains shown) VH: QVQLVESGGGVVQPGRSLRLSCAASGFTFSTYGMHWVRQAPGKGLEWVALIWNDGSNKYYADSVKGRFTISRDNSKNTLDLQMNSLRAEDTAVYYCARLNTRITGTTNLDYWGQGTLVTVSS VL: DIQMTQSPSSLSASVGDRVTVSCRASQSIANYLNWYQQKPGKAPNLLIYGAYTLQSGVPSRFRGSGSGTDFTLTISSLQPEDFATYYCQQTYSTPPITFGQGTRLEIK
OUTPUT: 1

INPUT: Complete the entry with 100 nM Ag Bound (RU) for mAb25497 (antibody, V domains shown) VH: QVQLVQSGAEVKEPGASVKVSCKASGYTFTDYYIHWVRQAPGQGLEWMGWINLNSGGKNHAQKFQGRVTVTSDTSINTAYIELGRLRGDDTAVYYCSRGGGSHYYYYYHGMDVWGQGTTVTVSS VL: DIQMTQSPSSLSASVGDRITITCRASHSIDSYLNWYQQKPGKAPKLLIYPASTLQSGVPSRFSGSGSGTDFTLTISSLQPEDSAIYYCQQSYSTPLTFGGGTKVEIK
OUTPUT: 0

INPUT: Complete the entry with 100 nM Ag Bound (RU) for mAb22033 (antibody, V domains shown) VH: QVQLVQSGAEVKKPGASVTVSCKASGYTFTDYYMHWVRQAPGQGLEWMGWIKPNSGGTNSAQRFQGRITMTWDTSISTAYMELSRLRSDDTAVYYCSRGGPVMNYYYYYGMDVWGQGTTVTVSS VL: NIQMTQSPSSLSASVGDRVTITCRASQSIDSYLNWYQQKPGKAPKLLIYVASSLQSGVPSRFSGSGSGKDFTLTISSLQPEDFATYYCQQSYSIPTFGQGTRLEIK
OUTPUT: 1

INPUT: Complete the entry with 100 nM Ag Bound (RU) for mAb22809 (antibody, V domains shown) VH: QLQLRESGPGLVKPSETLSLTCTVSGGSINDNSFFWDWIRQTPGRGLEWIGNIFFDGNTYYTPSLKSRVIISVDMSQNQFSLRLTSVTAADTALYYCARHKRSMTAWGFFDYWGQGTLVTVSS VL: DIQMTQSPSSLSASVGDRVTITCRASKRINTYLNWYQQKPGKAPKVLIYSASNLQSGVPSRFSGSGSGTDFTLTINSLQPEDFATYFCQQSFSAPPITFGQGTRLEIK
OUTPUT: 0

INPUT: Complete the entry with 100 nM Ag Bound (RU) for mAb25491 (antibody, V domains shown) VH: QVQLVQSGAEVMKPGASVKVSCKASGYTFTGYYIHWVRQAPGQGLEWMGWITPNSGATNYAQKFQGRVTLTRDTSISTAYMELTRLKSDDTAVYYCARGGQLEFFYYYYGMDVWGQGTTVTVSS VL: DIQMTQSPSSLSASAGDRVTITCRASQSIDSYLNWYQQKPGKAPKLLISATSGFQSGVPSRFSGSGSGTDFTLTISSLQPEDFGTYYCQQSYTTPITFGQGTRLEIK
OUTPUT: 0

Data credit: patent US20240309103A1
